- target-of-assay: CB1 receptor (Homo sapiens)
- Construct: Perkin Elmer (CB1-CHO cells)
- assay-comment: CB1 cAMP antagonist assay (LANCE Ultra cAMP kit)
- test-conditions: CHO cells stably expressing the CB1 receptor; forskolin and agonist CP55940 at EC90
Measured IC50 values are reported for all entries that follow.

NC(=O)Cn1c(=O)c2c(nc(-c3ccccc3Cl)n2-c2ccc(Cl)cc2)n(CC2CCN(CCO)CC2)c1=O ... ≥ 5000 nM
Cn1c(=O)c2c(nc(-c3ccccc3Cl)n2-c2ccc(Cl)cc2)n(CC2CCN(CC(N)=O)CC2)c1=O ... 100 to 1000 nM
Cn1c(=O)c2c(nc(-c3ccccc3Cl)n2-c2ccc(Cl)nc2)n(C2CCCCC2)c1=O ... < 100 nM
CS(=O)(=O)c1ccc(Cn2c(=O)n(CC(N)=O)c(=O)c3c2nc(-c2ccccc2Cl)n3-c2ccc(Cl)cc2)nc1 ... < 100 nM
CC(=O)N1CCC(Cn2c(=O)n(CC(N)=O)c(=O)c3c2nc(-c2ccccc2Cl)n3-c2ccc(Cl)cc2)CC1 ... 100 to 1000 nM

Consider the compound "Cn1c(=O)c2c(nc(-c3ccccc3Cl)n2-c2ccc(Cl)cc2)n(Cc2ccc(Cl)cc2)c1=O" and give its measured IC50. < 100 nM

Consider the compound "C[C@@H](C(N)=O)n1c(=O)c2c(nc(-c3ccccc3Cl)n2-c2ccc(Cl)cc2)n(CC2CCOCC2)c1=O" and give its measured IC50. < 100 nM

Consider the compound "CS(=O)(=O)N1CCC(Cn2c(=O)n(CC(N)=O)c(=O)c3c2nc(-c2ccccc2Cl)n3-c2ccc(Cl)cc2)CC1" and give its measured IC50. < 100 nM

Consider the compound "NC(=O)c1ccc(Cn2c(=O)n(C[C@@H](O)CO)c(=O)c3c2nc(-c2ccccc2Cl)n3-c2ccc(Cl)cc2)cc1" and give its measured IC50. < 100 nM

Consider the compound "Cn1nccc1-c1nc2c(c(=O)n(C)c(=O)n2Cc2ccc(S(N)(=O)=O)cc2)n1-c1ccc(Cl)cc1" and give its measured IC50. < 100 nM

Consider the compound CC(c1ccc(C(=O)NCCO)cc1)n1c(=O)n(C)c(=O)c2c1nc(-c1ccccc1Cl)n2-c1ccc(Cl)cc1 (stereo in doubt) and give its measured IC50. 100 to 1000 nM

Consider the compound "Cn1c(=O)c2c(nc(-c3ccccc3Cl)n2-c2ccc(Cl)cc2)n(CC2CCN(C[C@H](O)CO)CC2)c1=O" and give its measured IC50. ≥ 5000 nM

Consider the compound "Cn1c(=O)c2c(nc(-c3cccnc3Cl)n2-c2ccc(Cl)cc2)n(C2CCCCC2)c1=O" and give its measured IC50. < 100 nM

Consider the compound "NC(=O)Cn1c(=O)c2c(nc(-c3ncccc3Cl)n2-c2ccc(Cl)cc2)n(CC2CCS(=O)(=O)CC2)c1=O" and give its measured IC50. 1000 to 5000 nM

Consider the compound NC(=O)Cn1c(=O)c2c(nc(-c3ccccc3Cl)n2-c2ccc(Cl)cc2)n(Cc2ccc(CC(O)CO)cc2)c1=O (stereo in doubt) [Compound 146] and give its measured IC50. 100 to 1000 nM

---

- target-of-assay: CB1 receptor (Homo sapiens, UniProt P21554)
- Construct: Perkin Elmer (CB1-CHO cells)
- Sequence (P21554 whole entry): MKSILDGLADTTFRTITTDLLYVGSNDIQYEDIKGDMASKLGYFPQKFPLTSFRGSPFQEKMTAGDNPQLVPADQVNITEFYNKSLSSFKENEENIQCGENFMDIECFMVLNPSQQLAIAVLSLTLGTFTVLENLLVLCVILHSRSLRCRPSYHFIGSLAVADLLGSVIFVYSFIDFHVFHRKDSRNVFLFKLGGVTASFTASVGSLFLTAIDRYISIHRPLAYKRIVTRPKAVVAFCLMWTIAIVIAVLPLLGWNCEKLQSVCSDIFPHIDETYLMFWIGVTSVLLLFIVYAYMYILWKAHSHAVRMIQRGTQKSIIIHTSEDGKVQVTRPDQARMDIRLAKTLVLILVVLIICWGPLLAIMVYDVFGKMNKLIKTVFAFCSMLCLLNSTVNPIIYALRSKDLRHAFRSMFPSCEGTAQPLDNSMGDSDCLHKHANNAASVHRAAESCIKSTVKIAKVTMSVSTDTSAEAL
- assay-comment: CB1 cAMP antagonist assay (LANCE Ultra cAMP kit)
- test-conditions: CHO cells stably expressing the CB1 receptor; forskolin and agonist CP55940 at EC90
observable: IC50

Field: example entries. Status: answers known.
NC(=O)Cn1c(=O)c2c(nc(-c3ccccc3Cl)n2-c2ccc(Cl)cc2)n(CC2CCS(=O)(=O)CC2)c1=O ... < 100 nM
NC(=O)Cn1c(=O)c2c(nc(-c3ccccc3Cl)n2-c2ccc(Cl)cc2)n(CC2COCCO2)c1=O (stereo in doubt) [Compound 127] ... 100 to 1000 nM

Param readout= IC50; system= CB1 receptor (Homo sapiens, UniProt P21554); entry= CS(=N)(=O)c1ccc(Cn2c(=O)n(CC(N)=O)c(=O)c3c2nc(-c2ccccc2Cl)n3-c2ccc(Cl)cc2)cc1 (stereo not drawn) ; returns value. < 100 nM

---

- target-of-assay: CB1 receptor (Homo sapiens, UniProt P21554)
- Construct: Perkin Elmer (CB1-CHO cells)
- assay-comment: CB1 cAMP antagonist assay (LANCE Ultra cAMP kit)
- test-conditions: CHO cells stably expressing the CB1 receptor; forskolin and agonist CP55940 at EC90
observable: IC50

Consider the molecule Cn1c(=O)c2c(nc(-c3ccccc3Cl)n2-c2ccc(Cl)cc2)n(C2CCCCC2)c1=O [Compound 103] and give its measured IC50. < 100 nM

Consider the molecule Cn1c(=O)c2c(nc(-c3ccccc3Cl)n2-c2ccc(Cl)cc2)n(Cc2ccc(S(N)(=O)=O)cc2)c1=O [Compound 135] and give its measured IC50. < 100 nM

Consider the molecule CN(CCO)Cc1ccc(Cn2c(=O)n(C)c(=O)c3c2nc(-c2ccccc2Cl)n3-c2ccc(Cl)cc2)cc1 [Compound 120] and give its measured IC50. 100 to 1000 nM

Consider the molecule NC(=O)Cn1c(=O)c2c(nc(-c3ccc(F)cc3Cl)n2-c2ccc(Cl)cc2)n(CC2CCS(=O)(=O)CC2)c1=O [Compound 173] and give its measured IC50. < 100 nM

Consider the molecule CN1CCN(Cc2ccc(Cn3c(=O)n(CC(N)=O)c(=O)c4c3nc(-c3ccccc3Cl)n4-c3ccc(Cl)cc3)cc2)CC1 [Compound 118] and give its measured IC50. 1000 to 5000 nM

Consider the molecule NC(=O)Cn1c(=O)c2c(nc(-c3ccccc3Cl)n2-c2ccc(Cl)cc2)n(Cc2ccc(CC(O)CO)cc2)c1=O (stereo in doubt) [Compound 148] and give its measured IC50. 100 to 1000 nM

Consider the molecule Cn1c(=O)c2c(nc(-c3ccccc3Cl)n2-c2ccc(Cl)cc2)n(Cc2ccc(C(=O)NC3CCOCC3)cn2)c1=O [Compound 165] and give its measured IC50. < 100 nM

---

- target-of-assay: CB1 receptor (Homo sapiens)
- Construct: Perkin Elmer (CB1-CHO cells)
- assay-comment: CB1 cAMP antagonist assay (LANCE Ultra cAMP kit)
- test-conditions: CHO cells stably expressing the CB1 receptor; forskolin and agonist CP55940 at EC90
pIC50: −log10 of the molar value.
Measured pIC50 values are reported for all entries that follow.

Field: example entries. Status: answers known.
Cn1c(=O)c2c(nc(-c3ccccc3Cl)n2-c2ccc(Cl)cc2)n(Cc2ccc(C(=O)NCC3(O)CC3)cn2)c1=O ... > 7.00
NC(=O)Cn1c(=O)c2c(nc(-c3ccccc3Cl)n2-c2ccc(Cl)cc2)n(CC2CCOCC2)c1=O ... > 7.00
NS(=O)(=O)Cn1c(=O)c2c(nc(-c3ccccc3Cl)n2-c2ccc(Cl)cc2)n(Cc2ccc(Cl)cn2)c1=O ... > 7.00
NC(=O)Cn1c(=O)c2c(nc(-c3ccccc3Cl)n2-c2ccc(Cl)cc2)n(Cc2ccc(CN3CCOCC3)cc2)c1=O ... > 7.00
C[C@H](c1ccc(S(N)(=O)=O)cn1)n1c(=O)n(C)c(=O)c2c1nc(-c1ccccc1Cl)n2-c1ccc(Cl)cc1 ... > 7.00
C[C@@H](c1ccc(C(N)=O)cc1)n1c(=O)n(C[C@@H](O)CO)c(=O)c2c1nc(-c1ccccc1Cl)n2-c1ccc(Cl)cc1 ... 6.00 to 7.00

Please look at the following compound next.
Consider the compound "Cn1c(=O)c2c(nc(-c3ccccc3Cl)n2-c2ccc(Cl)cc2)n(Cc2ccc(C(=O)NCCO)cc2)c1=O" and give its measured pIC50. > 7.00

---

- target-of-assay: CB1 receptor (Homo sapiens)
- Construct: Perkin Elmer (CB1-CHO cells)
- assay-comment: CB1 cAMP antagonist assay (LANCE Ultra cAMP kit)
- test-conditions: CHO cells stably expressing the CB1 receptor; forskolin and agonist CP55940 at EC90
observable: IC50

Field: example entries. Status: answers known.
NC(=O)Cn1c(=O)c2c(nc(-c3ccccc3Cl)n2-c2ccc(Cl)cc2)n(CC2COCCO2)c1=O (racemic) [Compound 124] ... < 100 nM
C[C@@H](CO)NC(=O)c1ccc(Cn2c(=O)n(C)c(=O)c3c2nc(-c2ccccc2Cl)n3-c2ccc(Cl)cc2)nc1 ... < 100 nM
Cn1c(=O)c2c(nc(-c3ccccc3Cl)n2-c2ccc(Cl)cc2)n(Cc2ccc(C(=O)NC3CCOC3)cn2)c1=O (centres unmarked) ... < 100 nM
COCCn1c(=O)c2c(nc(-c3ccccc3Cl)n2-c2ccc(Cl)cc2)n(C2CCCCC2)c1=O ... < 100 nM

Please look at the following compound next.
Consider the compound CC(C(N)=O)n1c(=O)c2c(nc(-c3ccccc3Cl)n2-c2ccc(Cl)cc2)n(CC2CCOCC2)c1=O (stereo in doubt) and give its measured IC50. < 100 nM

---

- target-of-assay: CB2 receptor (Homo sapiens)
- Sequence (P34972 whole entry): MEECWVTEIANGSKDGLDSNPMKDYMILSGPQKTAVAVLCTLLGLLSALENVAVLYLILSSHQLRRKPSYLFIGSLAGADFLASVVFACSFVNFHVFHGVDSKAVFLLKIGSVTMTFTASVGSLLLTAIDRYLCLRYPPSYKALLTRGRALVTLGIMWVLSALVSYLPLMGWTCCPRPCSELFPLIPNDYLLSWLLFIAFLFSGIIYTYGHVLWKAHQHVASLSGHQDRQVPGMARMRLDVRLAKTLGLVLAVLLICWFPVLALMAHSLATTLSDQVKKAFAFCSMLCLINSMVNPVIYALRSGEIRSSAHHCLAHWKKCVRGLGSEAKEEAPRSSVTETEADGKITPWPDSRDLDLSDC
- assay-comment: CB2 cAMP antagonist assay (LANCE Ultra cAMP kit)
- test-conditions: CB2-CHO cells stably expressing the CB2 receptor; forskolin and agonist CP55940 at EC90
observable: IC50

Field: example entries. Status: answers known.
O=c1c2c(nc(-c3ccccc3Cl)n2-c2ccc(Cl)cc2)n(C2CCCCC2)c(=O)n1CCCO ... ≥ 5 µM
Cn1c(=O)c2c(nc(-c3ccccc3Cl)n2-c2ccc(Cl)cc2)n(Cc2ccc(S(N)(=O)=O)cn2)c1=O ... ≥ 5 µM
COCCn1c(=O)c2c(nc(-c3ccccc3Cl)n2-c2ccc(Cl)cc2)n(C2CCCCC2)c1=O ... ≥ 5 µM
Cn1c(=O)c2c(nc(-c3ccccc3Cl)n2-c2ccc(Cl)cc2)n(Cc2ccc(C(=O)NC3CCOCC3)cn2)c1=O ... ≥ 5 µM
Cn1c(=O)c2c(nc(-c3ccccc3Cl)n2-c2ccc(Cl)cc2)n(Cc2ccc(C(N)=O)cc2)c1=O ... ≥ 5 µM
C[C@H](c1ccc(C(=O)NCCO)cc1)n1c(=O)n(C)c(=O)c2c1nc(-c1ccccc1Cl)n2-c1ccc(Cl)cc1 ... ≥ 5 µM
O=c1c2c(nc(-c3ccccc3Cl)n2-c2ccc(Cl)cc2)n(C2CCCCC2)c(=O)n1CCO ... ≥ 5 µM
CS(=O)(=O)N1CCC(Cn2c(=O)n(CC(N)=O)c(=O)c3c2nc(-c2ncccc2Cl)n3-c2ccc(Cl)cc2)CC1 ... ≥ 5 µM
NC(=O)Cn1c(=O)c2c(nc(-c3ccccc3Cl)n2-c2ccc(Cl)cc2)n(C2CCCCC2)c1=O ... ≥ 5 µM
Cn1c(=O)c2c(nc(-c3ccccc3Cl)n2-c2ccc(Cl)cc2)n(Cc2ccc(S(=O)(=O)NCCO)cn2)c1=O ... ≥ 5 µM

Consider the compound "NC(=O)c1ccc(Cn2c(=O)n(C[C@@H](O)CO)c(=O)c3c2nc(-c2ccccc2Cl)n3-c2ccc(Cl)cc2)cc1" and give its measured IC50. ≥ 5 µM

Consider the compound "NC(=O)Cn1c(=O)c2c(nc(-c3ccccc3Cl)n2-c2ccc(Cl)cc2)n(CC2CCS(=O)(=O)CC2)c1=O" and give its measured IC50. ≥ 5 µM

Consider the compound "Cn1c(=O)c2c(nc(-c3ccccc3Cl)n2-c2ccc(Cl)cc2)n(C2CCCCC2)c1=O" and give its measured IC50. ≥ 5 µM

Consider the compound "Cn1c(=O)c2c(nc(-c3ccccc3Cl)n2-c2ccc(Cl)cc2)n(Cc2ccc(S(N)(=O)=O)cc2)c1=O" and give its measured IC50. ≥ 5 µM
